Each entry below carries its reported growth.
- Test system: UACC-257 melanoma
- protocol-description: NCI-60 one-dose screen, 48 h (100 = growth as untreated, 0 = no growth, -100 = all killed)
- test-parameters: 10 µM unless noted
About 83,000 compounds went through this panel and 20% of them were active in at least one assay; those are over-represented in the sample as a whole.
result-type: growth (%)

>  <compound>
CNC(=O)c1cc(Oc2cccc3nc(NC(=O)Nc4ccc(F)cc4F)ccc23)ccn1

>  <result-type>
growth

>  <units>
%

>  <numeric-result>
56.3

$$$$
>  <compound>
COc1ccc(NC(=O)c2ccc(Cl)cc2Cl)cc1

>  <result-type>
growth

>  <units>
%

>  <numeric-result>
96.8

$$$$
>  <compound>
O=C(Nc1ncc(Cc2ccc(Cl)cc2)s1)C1=NCCCCN1

>  <result-type>
growth

>  <units>
%

>  <numeric-result>
108

$$$$
>  <compound>
FC(F)(F)c1cccc(-c2nnn(Cc3cc(-c4cccc(Cl)c4)no3)n2)c1

>  <result-type>
growth

>  <units>
%

>  <numeric-result>
96.3

$$$$
>  <compound>
CC/C(=C(/c1ccc(Cl)cc1)c1ccc(OCCN2CCCC2)cc1)c1ccccc1

>  <result-type>
growth

>  <units>
%

>  <numeric-result>
74

$$$$
>  <compound>
CN(CCNc1ccc(C(=N)N)cc1)c1ccc(C(=N)N)cc1

>  <result-type>
growth

>  <units>
%

>  <numeric-result>
55.1

$$$$
>  <compound>
[2H]C([2H])([2H])Oc1c(F)cccc1/C=C/C(=O)/C=C(O)/C=C/c1cccc(F)c1OC([2H])([2H])[2H]

>  <result-type>
growth

>  <units>
%

>  <numeric-result>
82.7

$$$$
>  <compound>
Oc1cccc2c1NCCC2

>  <result-type>
growth

>  <units>
%

>  <numeric-result>
12.4

$$$$
>  <compound>
C#Cc1ccc(NC(=O)Cc2ccc(/C=C/C(=O)c3nccn3C)cc2)cc1

>  <result-type>
growth

>  <units>
%

>  <numeric-result>
103

$$$$
>  <compound>
COc1cc2c(cc1-c1c(C)noc1C)ncc1nc(C3CCOCC3)n(C3CCC(OC(F)F)CC3)c12 (stereo not given)

>  <result-type>
growth

>  <units>
%

>  <numeric-result>
47.7

$$$$
>  <compound>
CN1CCN(c2ccc(Nc3ncc4[nH]c(=O)n(Cc5ccccc5N)c4n3)cc2)CC1

>  <result-type>
growth

>  <units>
%

>  <numeric-result>
112

$$$$
>  <compound>
Cc1ccc(-c2nc(C#N)c(S(=O)(=O)n3nc(C)cc3N)o2)cc1

>  <result-type>
growth

>  <units>
%

>  <numeric-result>
95.1

$$$$
>  <compound>
COc1cc2c(c(OC)c1OC)CCC(c1cccc(C(=O)Nc3ccccc3Br)c1)O2 (stereo not given)

>  <result-type>
growth

>  <units>
%

>  <numeric-result>
90.7

$$$$
>  <compound>
COc1ccc(/C=C\c2cc(OC)c(OC)c(OC)c2)cc1OCC(=O)Nc1nc2ccccc2s1

>  <result-type>
growth

>  <units>
%

>  <numeric-result>
54.4

$$$$
>  <compound>
COc1cccc(-c2cc(-c3ccc(Nc4nc(Nc5ccc(Cl)cc5)nc(Nc5ccc(Cl)cc5)n4)cc3)nc(N)c2C#N)c1

>  <result-type>
growth

>  <units>
%

>  <numeric-result>
16.3

$$$$
>  <compound>
Nc1ncnc2c1N=C(c1ccc([N+](=O)[O-])cc1)CC(c1ccc3c(c1)OCO3)N2 (stereo not given)

>  <result-type>
growth

>  <units>
%

>  <numeric-result>
116

$$$$
>  <compound>
COc1cc(C2=Nc3c(N)nc(N)nc3NC(c3cccc(Nc4ccnc5cc(C(F)(F)F)ccc45)c3)C2)cc(OC)c1OC (stereo not given)

>  <result-type>
growth

>  <units>
%

>  <numeric-result>
77.7

$$$$
>  <compound>
COc1ccc(NC(=O)c2sc3nc(C)c(C(=O)c4ccccc4)cc3c2N)cc1

>  <result-type>
growth

>  <units>
%

>  <numeric-result>
96.9

$$$$
>  <compound>
O=C1/C(=C/c2cccc([N+](=O)[O-])c2)COc2ccc(O)c(O)c21

>  <result-type>
growth

>  <units>
%

>  <numeric-result>
3.37

$$$$
>  <compound>
CCCCCCCCCCCCCC[n+]1ccc2c(C)c3c(c(C)c2c1)c1cc(O)ccc1n3CC

>  <result-type>
growth

>  <units>
%

>  <numeric-result>
-69.3

$$$$

Source of measurements: PubChem BioAssay (NCI)
